Assay: Agonist activity at delta opioid receptor expressed in rat/mouse NG108-15 cells assessed as [35S]GTPgammaS binding by scintillation counting analysis relative to DADLE
Assay type: functional, cell-based
Record form. Attribute: Emax. Fill in for each entry.
Please respond with the number in % and leave the unit unwritten.

I have this compound here, CN1CC[C@]23c4c5ccc(O)c4O[C@H]2c2ncc(-c4ccc(Cl)cc4)cc2C[C@@]3(OC(=O)Cc2ccccc2)[C@H]1C5 , and I need its recorded Emax.
27

# Emax lookup, item CN1CC[C@]23c4c5ccc(O)c4O[C@H]2c2ncc(-c4ccc(Cl)cc4)cc2C[C@@]3(OC/C=C/c2ccccc2)[C@H]1C5
84

Requested field: Emax. Item: CN1CC[C@]23c4c5ccc(O)c4O[C@H]2c2ncc(-c4ccc(Cl)cc4)cc2C[C@@]3(OC(=O)CCc2ccccc2)[C@H]1C5
59

If you can, please state the reported Emax value of CN1CC[C@]23c4c5ccc(O)c4O[C@H]2c2ncc(-c4ccc(Cl)cc4)cc2C[C@@]3(OCCCc2ccccc2)[C@H]1C5 .
85

Which measured Emax value corresponds to CN1CC[C@]23c4c5ccc(O)c4O[C@H]2c2ncc(-c4ccc(Cl)cc4)cc2C[C@@]3(OCc2ccccc2)[C@H]1C5 ?
52

====

Target: Delta-type opioid receptor (Homo sapiens)
Sequence (P41143 whole entry): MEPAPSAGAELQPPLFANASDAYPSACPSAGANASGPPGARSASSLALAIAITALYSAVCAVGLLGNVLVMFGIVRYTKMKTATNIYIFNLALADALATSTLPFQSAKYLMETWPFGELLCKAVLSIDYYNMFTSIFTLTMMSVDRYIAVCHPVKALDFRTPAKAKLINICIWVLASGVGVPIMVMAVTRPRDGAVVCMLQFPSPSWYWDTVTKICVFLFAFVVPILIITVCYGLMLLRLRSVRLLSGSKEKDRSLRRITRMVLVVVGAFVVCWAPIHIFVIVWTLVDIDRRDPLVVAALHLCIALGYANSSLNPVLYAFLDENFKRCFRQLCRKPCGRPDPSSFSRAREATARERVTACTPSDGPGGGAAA
Experiment: Displacement of [3H]DADLE from human delta opioid receptor expressed in CHO cells by scintillation counting analysis
Assay type: cell-based
Can you tell me pKi for the items I'm about to list?
For clarity, pKi is expressed as the negative log10 of concentration in mol/L.

Look up pKi for this molecule: CO[C@@]12Cc3cc(-c4ccc(Cl)cc4)cnc3[C@@H]3Oc4c(O)ccc5c4[C@@]31CCN(C)[C@@H]2C5
8.79

Which value of pKi has been reported for O=C(O[C@@]12Cc3cc(-c4ccc(Cl)cc4)cnc3[C@@H]3Oc4c(O)ccc5c4[C@@]31CCN(CC1CC1)[C@@H]2C5)c1ccccc1 in the records?
7.06

What measured pKi goes with CN1CC[C@]23c4c5ccc(O)c4O[C@H]2c2ncc(-c4ccc(Cl)cc4)cc2C[C@@]3(OC(=O)c2ccccc2)[C@H]1C5 ?
7.77

Quick one: pKi of CN1CC[C@]23c4c5ccc(O)c4O[C@H]2c2ncc(-c4ccc(Cl)cc4)cc2C[C@@]3(OC/C=C/c2ccccc2)[C@H]1C5 ?
8.94

====

System: Delta-type opioid receptor
Experiment: Antagonist activity at delta opioid receptor expressed in rat/mouse NG108-15 cells assessed as [35S]GTPgammaS binding by scintillation counting analysis
Assay type: functional, cell-based
Criterion: Ke strictly under 3 nM. Met: true (1). Not met: false (0).

For CO[C@@]12Cc3cc(-c4ccc(Cl)cc4)cnc3[C@@H]3Oc4c(O)ccc5c4[C@@]31CCN(C)[C@@H]2C5 , is the recorded Ke below the cut-off of 3 nM?
true (1)

Identify whether the compound Oc1ccc2c3c1O[C@H]1c4ncc(-c5ccc(Cl)cc5)cc4C[C@@]4(OCCCc5ccccc5)[C@@H](C2)N(CC2CC2)CC[C@]314 records Ke below 3 nM.
true (1)

Determine if CN1CC[C@]23c4c5ccc(O)c4O[C@H]2c2ncc(-c4ccc(Cl)cc4)cc2C[C@@]3(OC(=O)CCc2ccccc2)[C@H]1C5 shows Ke strictly lower than 3 nM.
true (1)

Regarding CN1CC[C@]23c4c5ccc(O)c4O[C@H]2c2ncc(-c4ccc(Cl)cc4)cc2C[C@@]3(OC(=O)Cc2ccccc2)[C@H]1C5 , kindly confirm whether its Ke is beneath 3 nM.
false (0)

Confirm or reject: Ke of CN1CC[C@]23c4c5ccc(O)c4O[C@H]2c2ncc(-c4ccc(Cl)cc4)cc2C[C@@]3(OCc2ccccc2)[C@H]1C5 lies strictly below 3 nM
false (0)

The origin of these recorded values is ChEMBL document CHEMBL2177065.
